Tested on: rodent lifetime carcinogenesis bioassay, tumor incidence TD50
EXPERIMENT_NOTES: carcinogenic potency in animals, long-term in vivo studies, CPDB compilation (AID 1745844)
EXPERIMENTAL_SETUP: rat; strain Charles River CD (Sprague-Dawley); males; in feed; site: mammary gland; lesion: adenocarcinoma; dosed 69 weeks; study length 69 weeks

- MOLECULE_SMILES: "Nc1ccc(-c2ccc(N)c(Cl)c2)cc1Cl"
  TD50: "69.6 mg/kg/day"

====

The following molecules are listed with their measured TD50 values.
System: rodent lifetime carcinogenesis bioassay, tumor incidence TD50
EXPERIMENT_NOTES: carcinogenic potency in animals, long-term in vivo studies, CPDB compilation (AID 1745844)
EXPERIMENTAL_SETUP: rat; strain Sprague-Dawley; males; by gavage; site: head; lesion: carcinoma; dosed 104 weeks; study length 123 weeks

- MOLECULE_SMILES: "CCc1ccccc1"
  SYSTEM_TESTED: "rodent lifetime carcinogenesis bioassay, tumor incidence TD50"
  TD50: "4350 mg/kg/day"
- MOLECULE_SMILES: "Cc1ccc(C)c(C)c1"
  SYSTEM_TESTED: "rodent lifetime carcinogenesis bioassay, tumor incidence TD50"
  TD50: "4350 mg/kg/day"
- MOLECULE_SMILES: "Cc1cccc(C)c1"
  SYSTEM_TESTED: "rodent lifetime carcinogenesis bioassay, tumor incidence TD50"
  TD50: "3440 mg/kg/day"

====

Tested on: rodent lifetime carcinogenesis bioassay, tumor incidence TD50
EXPERIMENT_NOTES: carcinogenic potency in animals, long-term in vivo studies, CPDB compilation (AID 1745844)
EXPERIMENTAL_SETUP: rat; strain Charles River CD (Sprague-Dawley); males; in feed; site: liver; lesion: hepatocellular adenoma; dosed 104 weeks; study length 104 weeks
Calls of active or inactive are those of the source. The rule behind the calls is not given here.
# TD50 per record follows

- COMPOUND: "O=P(OC(CCl)CCl)(OC(CCl)CCl)OC(CCl)CCl"
  TD50: "252 mg/kg/day"
- COMPOUND: "OC(Cn1cncn1)(Cn1cncn1)c1ccc(F)cc1F"
  TD50: "80.7 mg/kg/day"
- COMPOUND: "COC(=O)C1=C(C)NC(C)=C(C(=O)OCCN2CCN(C(c3ccccc3)c3ccccc3)CC2)C1c1cccc([N+](=O)[O-])c1 (stereo not given)"
  TD50: "8240 mg/kg/day (inactive)"
- COMPOUND: "CCN(CC)C(=O)c1cccc(C)c1"
  TD50: "3390 mg/kg/day (inactive)"
- COMPOUND: "CCCCOCCOCCOCc1cc2c(cc1CCC)OCO2"
  TD50: "12800 mg/kg/day (inactive)"

====

System: rodent lifetime carcinogenesis bioassay, tumor incidence TD50
EXPERIMENT_NOTES: carcinogenic potency in animals, long-term in vivo studies, CPDB compilation (AID 1745844)
EXPERIMENTAL_SETUP: mouse; strain B6C3F1; females; by gavage; site: liver; lesion: hepatocellular adenoma + hepatocellular carcinoma; dosed 103 weeks; study length 104 weeks

- MOLECULE: "ClC(Cl)C(Cl)(Cl)Cl"
  TD50: "39.8 mg/kg/day"
- MOLECULE: "O=C1CCc2ccccc2O1"
  TD50: "723 mg/kg/day"
- MOLECULE: "CCCCC(CC)COP(=O)(OCC(CC)CCCC)OCC(CC)CCCC (stereo not given)"
  TD50: "2220 mg/kg/day"
- MOLECULE: "O=c1ccc2ccccc2o1"
  TD50: "65.7 mg/kg/day"
- MOLECULE: "O=Cc1ccco1"
  TD50: "377 mg/kg/day"
- MOLECULE: "S=c1[nH]c2ccccc2s1"
  TD50: "2160 mg/kg/day"
- MOLECULE: "S=[Se]"
  TD50: "69.3 mg/kg/day"
- MOLECULE: "c1ccc2occc2c1"
  TD50: "36.4 mg/kg/day"
- MOLECULE: "ClCC(Cl)(Cl)Cl"
  TD50: "175 mg/kg/day"
- MOLECULE: "CCCN(CCC)S(=O)(=O)c1ccc(C(=O)O)cc1"
  TD50: "540 mg/kg/day"

Data origin: PubChem BioAssay AID1745844
